Target: Epidermal growth factor receptor (Homo sapiens) (UniProt P00533);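 also: values are mean inhibition figures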
Sequence (P00533 whole entry): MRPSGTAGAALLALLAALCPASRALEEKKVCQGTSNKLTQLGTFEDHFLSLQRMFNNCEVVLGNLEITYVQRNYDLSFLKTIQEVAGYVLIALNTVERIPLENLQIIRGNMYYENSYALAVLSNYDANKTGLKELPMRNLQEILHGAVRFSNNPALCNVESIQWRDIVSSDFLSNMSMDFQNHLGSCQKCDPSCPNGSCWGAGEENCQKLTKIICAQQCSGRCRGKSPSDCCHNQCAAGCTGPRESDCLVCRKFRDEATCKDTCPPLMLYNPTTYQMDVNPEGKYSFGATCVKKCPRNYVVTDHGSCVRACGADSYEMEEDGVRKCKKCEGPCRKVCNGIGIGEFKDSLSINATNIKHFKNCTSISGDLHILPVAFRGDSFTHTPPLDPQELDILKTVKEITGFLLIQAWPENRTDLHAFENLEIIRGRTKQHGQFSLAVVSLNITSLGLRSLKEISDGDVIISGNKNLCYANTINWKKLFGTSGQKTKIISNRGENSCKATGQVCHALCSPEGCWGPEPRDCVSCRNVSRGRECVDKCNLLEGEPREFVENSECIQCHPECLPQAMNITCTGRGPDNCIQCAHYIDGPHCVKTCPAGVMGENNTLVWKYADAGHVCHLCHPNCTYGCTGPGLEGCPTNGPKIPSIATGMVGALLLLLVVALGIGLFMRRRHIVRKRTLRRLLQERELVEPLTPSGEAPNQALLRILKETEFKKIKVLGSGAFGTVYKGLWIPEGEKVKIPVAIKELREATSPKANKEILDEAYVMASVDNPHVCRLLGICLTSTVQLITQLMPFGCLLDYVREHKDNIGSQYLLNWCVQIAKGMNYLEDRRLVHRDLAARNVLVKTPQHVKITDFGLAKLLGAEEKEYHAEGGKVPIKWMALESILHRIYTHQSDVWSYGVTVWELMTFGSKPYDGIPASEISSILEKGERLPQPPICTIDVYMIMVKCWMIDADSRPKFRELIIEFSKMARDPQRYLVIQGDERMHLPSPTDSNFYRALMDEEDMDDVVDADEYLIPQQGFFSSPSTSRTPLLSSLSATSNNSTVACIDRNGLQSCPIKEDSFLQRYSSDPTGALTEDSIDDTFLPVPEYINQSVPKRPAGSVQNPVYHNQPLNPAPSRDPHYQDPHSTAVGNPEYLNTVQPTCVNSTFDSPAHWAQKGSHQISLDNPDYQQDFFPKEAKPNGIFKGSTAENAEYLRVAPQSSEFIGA
Settings: at 1 µM
Reported inhibition values for a set of compounds
Report the value in % with no unit label.

[[record]]
line_notation = "Clc1ccc(-c2nn3ncccc3c2-c2ccnc(Nc3ccccc3)n2)cc1"
test_readout = "inhibition"
test_result = 61.7


Challenge: Determine from records and report inhibition for COc1ccc2[nH]c3c4[nH]c5ccc(OC)cc5c4c4c(c3c2c1)C(=O)NC4=O
Response given: 23.3

Challenge: Determine from records and report inhibition for CC(=O)NCc1cccc(C#Cc2cncnc2Nc2ccc(OCc3cccc(F)c3)c(Cl)c2)c1
Response given: 75.8

Challenge: Determine from records and report inhibition for O=C(Nc1n[nH]c2cc(-c3ccc(F)cc3)ccc12)C1CC1
Response given: 4.27

Challenge: Determine from records and report inhibition for Fc1ccc(-c2cc(-c3c[nH]nc3-c3ccccn3)ccn2)cc1
Response given: 1.67

Challenge: Determine from records and report inhibition for [O-][S+]1CCN(Cc2ccc(-c3ccc4ncnc(Nc5ccc(OCc6cccc(F)c6)c(Cl)c5)c4c3)o2)CC1
Response given: 83.5

Challenge: Determine from records and report inhibition for CCc1nn2ncccc2c1-c1ccnc(NC2CC2)n1
Response given: 4.33

Challenge: Determine from records and report inhibition for CCN(CC)S(=O)(=O)c1ccc(OC)c(Nc2ncc(-c3ccccc3)o2)c1
Response given: 3.96
